- condition_summary: Ebola virus entry assay, ratio channel readout
Calls of active or inactive are those of the source. Calls come from the whole dose curve.
Choose the fitting class; nothing outside 1 (yes) = active, 0 (no) = inactive is accepted.

Prompt line: Tell me the assay call for COc1cccc2c1C(=O)c1c(O)c3c(c(O)c1C2=O)C[C@@](O)(C(C)=O)C[C@H]3O[C@H]1C[C@H](N)[C@H](O)[C@H](C)O1 please.
Response line: 1 (yes)

Prompt line: // repeat for COC(=O)Nc1nc2ccc(C(=O)c3ccccc3)cc2[nH]1 and report
Response line: 0 (no)

Prompt line: Now try C[C@]12CC[C@@H]3c4ccc(O)cc4C[C@@H](CCCCCCCCCS(=O)CCCC(F)(F)C(F)(F)F)[C@H]3[C@@H]1CC[C@@H]2O (stereo partly drawn) .
Response line: 0 (no)

Prompt line: Then what about the compound CC[C@]1(O)C[C@H]2CN(CCc3c([nH]c4ccccc34)[C@@](C(=O)OC)(c3cc4c(cc3OC)N(C=O)[C@H]3[C@@](O)(C(=O)OC)[C@H](OC(C)=O)[C@]5(CC)C=CCN6CC[C@]43[C@@H]65)C2)C1 ?
Response line: 1 (yes)

Prompt line: Repeat with CCCSc1ccc2nc(NC(=O)OC)[nH]c2c1
Response line: 0 (no)

Prompt line: Now try CCC1=C[C@@H]2CN(C1)Cc1c([nH]c3ccccc13)[C@@](C(=O)OC)(c1cc3c(cc1OC)N(C)[C@H]1[C@@](O)(C(=O)OC)[C@H](OC(C)=O)[C@]4(CC)C=CCN5CC[C@]31[C@@H]54)C2 .
Response line: 1 (yes)

Prompt line: Another compound to check: CO[C@H]1C[C@@H]2CC[C@@H](C)[C@@](O)(O2)C(=O)C(=O)N2CCCC[C@@H]2C(=O)O[C@H]([C@@H](C)C[C@@H]2CC[C@H](O)[C@H](OC)C2)CC(=O)[C@H](C)C=C(C)[C@@H](O)[C@@H](OC)C(=O)[C@H](C)C[C@H](C)C=CC=CC=C1C
Response line: 0 (no)

Prompt line: Also CCCNCC(O)COc1ccccc1C(=O)CCc1ccccc1 (stereo not drawn) ?
Response line: 0 (no)

Prompt line: Check CC[C@H]1OC(=O)[C@H](C)[C@@H](O[C@H]2C[C@@](C)(OC)[C@@H](O)[C@H](C)O2)C(C)[C@@H](O[C@@H]2O[C@H](C)C[C@H](N(C)C)[C@@H]2O)[C@](C)(OC)C[C@@H](C)C(=O)[C@H](C)[C@@H](O)[C@]1(C)O (stereo partly drawn) too.
Response line: 0 (no)

Prompt line: Another compound: CC[C@H]1OC(=O)[C@H](C)[C@@H](O[C@H]2C[C@@](C)(OC)[C@@H](O)[C@H](C)O2)[C@H](C)[C@@H](O[C@@H]2O[C@H](C)C[C@H](N(C)C)[C@@H]2O)[C@](C)(O)C[C@@H](C)CN(C)[C@H](C)[C@@H](O)[C@]1(C)O
Response line: 1 (yes)

Prompt line: Entry COC1=CC(=O)C[C@@H](C)[C@]12Oc1c(Cl)c(OC)cc(OC)c1C2=O please
Response line: 0 (no)

Prompt line: What would you report for CN(C)CCOc1ccc(/C(=C(/CCCl)c2ccccc2)c2ccccc2)cc1 ?
Response line: 1 (yes)

Prompt line: Ok, now CC[C@]1(O)C[C@@H]2CN(CCc3c([nH]c4ccccc34)[C@@](C(=O)OC)(c3cc4c(cc3OC)N(C)[C@H]3[C@@](O)(C(=O)OC)[C@H](OC(C)=O)[C@]5(CC)C=CCN6CC[C@]43[C@@H]65)C2)C1
Response line: 1 (yes)

====

- condition_summary: Ebola virus entry assay, ratio channel readout
Activity calls are given as the source filed them. The call rests on the fitted dose curve.
metric_name: outcome

CO[C@H]1C[C@@H]2CC[C@@H](C)[C@@](O)(O2)C(=O)C(=O)N2CCCC[C@@H]2C(=O)O[C@H]([C@H](C)C[C@@H]2CC[C@H](OCCO)[C@H](OC)C2)CC(=O)[C@H](C)C=C(C)[C@@H](O)[C@@H](OC)C(=O)[C@H](C)C[C@H](C)C=CC=CC=C1C; inactive
C[C@@H]1O[C@@H](O[C@H]2CC[C@@]3(C)[C@H](CC[C@@H]4[C@H]3C[C@@H](O)[C@]3(C)[C@@H](C5=CC(=O)OC5)CC[C@]43O)C2)C[C@H](O)[C@@H]1O[C@H]1C[C@H](O)[C@H](O[C@H]2C[C@H](O)[C@@H](O)[C@@H](C)O2)[C@H](C)O1 (stereo in doubt); inactive
